B1: HDAC6 (parent)
chain: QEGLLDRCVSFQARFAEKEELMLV

- Variants of: B1
- Test Method Notes: protein stability index of a GFP-peptide fusion (GPS, HEK-293T) (PSI 1-6); higher = more stable;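 also: lentivirally expressed fusions sorted by FACS into six bins by GFP to DsRed ratio, PSI derived from sequencing read proportions per bin multiplied by bin number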
- Condition Context: c terminus: a fixed tail appended
Entries annotated with measured protein stability index
No unit in the answer, please; the number alone is enough.

Known protein stability index results, listed for orientation:
Item Sequence	protein stability index
QEGLLDRCVSFQARFAEKEELMCV [L23C]	2.59
YEGLLDRCVSFQARFAEKEELMLV [Q1Y]	1.25
QEGLLDRCVSFQARFAEMEELMLV [K18M]	2.04
QEGLLDRCVSFQMRFAEKEELMLV [A13M]	1.89
QEGLLDVCVSFQARFAEKEELMLV [R7V]	1.71

Query string: What value of measured protein stability index is listed for QEGLLDRCVSFQARFAEKEGLMLV [E20G] ?
Result string: 1.74

Query string: Which measured protein stability index value corresponds to QETLLDRCVSFQARFAEKEELMLV [G3T] ?
Result string: 1.97

Query string: Return reported protein stability index; argument: QEGLLDRCVSFQARFAEKEELMSV [L23S]
Result string: 3.25

Query string: What value of protein stability index has been reported for the following variant? QEGLLDRCVSFQARHAEKEELMLV [F15H]
Result string: 2.4

Query string: Find the recorded protein stability index belonging to QEGLLDRCVSFQARTAEKEELMLV [F15T] and report it.
Result string: 2.81

Query string: Quick one: protein stability index of QEGLLDRCVSFQARSAEKEELMLV [F15S] ?
Result string: 2.9
